- Assay target: human CDK4/cyclin D3 (Homo sapiens)
- Construct: made in house; host or cells: insect cells co-infected with baculovirus vectors
- Sequence (P11802 whole entry): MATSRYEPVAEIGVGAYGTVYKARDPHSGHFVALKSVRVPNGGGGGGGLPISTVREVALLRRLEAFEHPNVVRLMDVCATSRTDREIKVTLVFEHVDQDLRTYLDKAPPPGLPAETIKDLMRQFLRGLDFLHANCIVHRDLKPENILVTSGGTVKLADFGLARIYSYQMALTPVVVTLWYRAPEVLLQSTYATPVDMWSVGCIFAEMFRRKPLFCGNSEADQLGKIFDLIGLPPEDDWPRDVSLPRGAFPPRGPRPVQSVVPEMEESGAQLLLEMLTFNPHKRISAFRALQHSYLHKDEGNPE
- Sequence (P30281 1-264 partner limits assumed): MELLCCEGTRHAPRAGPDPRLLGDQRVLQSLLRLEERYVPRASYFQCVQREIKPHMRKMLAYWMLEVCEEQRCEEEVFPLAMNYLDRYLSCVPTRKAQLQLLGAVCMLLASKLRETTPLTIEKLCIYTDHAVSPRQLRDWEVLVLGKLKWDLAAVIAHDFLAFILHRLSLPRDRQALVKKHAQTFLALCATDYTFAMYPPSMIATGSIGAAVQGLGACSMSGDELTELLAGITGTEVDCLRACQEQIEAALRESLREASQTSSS
- Test description: Inhibition of CDK4/cyclin D retinoblastoma kinase activity (Ki; % inhibition)
- Format: biochemical
- Study conditions: 0.03 μM compound
Reported endpoint: CDK4 % Inhibition at 0.03 μM (%)
Quick reminder: number only, in %, skip the unit.

Reference set (4 entries):
Cc1cc(NC(=O)c2ccc(Nc3nc(N)c(C(=O)c4c(F)cccc4F)s3)cc2)ccc1F: 12
Nc1nc(Nc2ccc(C(=O)Nc3ccc(OC(F)(F)F)cc3)cc2)sc1C(=O)c1c(F)cccc1F: 20
Nc1nc(Nc2ccc(C(=O)NCc3cc(F)ccc3F)cc2)sc1C(=O)c1c(F)cccc1F: 30
Nc1nc(Nc2ccc(C(=O)N3CCC(O)(c4ccccc4)CC3)cc2)sc1C(=O)c1c(F)cccc1F: 25

Q. Check the records and state CDK4 % Inhibition at 0.03 μM for Nc1nc(Nc2ccc(C(=O)Nc3cccc(SC(F)(F)F)c3)cc2)sc1C(=O)c1c(F)cccc1F
A. −1

Q. Check the records and state CDK4 % Inhibition at 0.03 μM for CCN(C(=O)c1ccc(Nc2nc(N)c(C(=O)c3c(F)cccc3F)s2)cc1)C1CCCCC1
A. 5

Q. Check the records and state CDK4 % Inhibition at 0.03 μM for Nc1nc(Nc2ccc(C(=O)NCCSCCO)cc2)sc1C(=O)c1c(F)cccc1F
A. 8

Q. Check the records and state CDK4 % Inhibition at 0.03 μM for Nc1nc(Nc2ccc(C(=O)NCCCCCO)cc2)sc1C(=O)c1c(F)cccc1F
A. 5

* * *

- Assay target: CDK2/cyclin A (Homo sapiens)
- Construct: made in house; host or cells: CDK2: insect cells (baculovirus); cyclin A: E. coli
- Test description: Inhibition of CDK2/cyclin A retinoblastoma kinase activity (Ki; % inhibition)
- Type: biochemical
- Study conditions: at 0.03 μM
Label Criterion not met if CDK2 % Inhibition at 0.03 μM falls below 7%; label Criterion met in every other case.

Nc1nc(Nc2ccc(C(=O)NCCCN3CCOCC3)cc2)sc1C(=O)c1c(F)cccc1F [Example G132]: Criterion met

Q. Please check the record NC(=O)CCNC(=O)c1ccc(Nc2nc(N)c(C(=O)c3c(F)cccc3F)s2)cc1 [Example G137] and state if its CDK2 % Inhibition at 0.03 μM is at or above 7%.
A. Criterion not met

Q. Please check the record CC(=O)NC1CCN(C(=O)c2ccc(Nc3nc(N)c(C(=O)c4c(F)cccc4F)s3)cc2)C1 (stereo not drawn) [Example G73] and state if its CDK2 % Inhibition at 0.03 μM is at or above 7%.
A. Criterion met

Q. Please check the record CC(C)[C@@H](CO)NC(=O)c1ccc(Nc2nc(N)c(C(=O)c3c(F)cccc3F)s2)cc1 [Example G152] and state if its CDK2 % Inhibition at 0.03 μM is at or above 7%.
A. Criterion met

Q. Please check the record CCOC(=O)c1ccc(NC(=O)c2ccc(Nc3nc(N)c(C(=O)c4c(F)cccc4F)s3)cc2)cc1 [Example G190] and state if its CDK2 % Inhibition at 0.03 μM is at or above 7%.
A. Criterion not met

Q. Please check the record CC(CNC(=O)c1ccc(Nc2nc(N)c(C(=O)c3c(F)cccc3F)s2)cc1)c1ccccc1 (stereo not drawn) [Example G118] and state if its CDK2 % Inhibition at 0.03 μM is at or above 7%.
A. Criterion met
